- system_tested: T1, human TROP2-Fc protein antigen (human, UniProt P09758 27-274)
- T1 construct: extracellular domain; also called CRD + TY-1 + CPD; not shown: IgG Fc of the pFUSE-IgG plasmid
- T1 sequence (looked up): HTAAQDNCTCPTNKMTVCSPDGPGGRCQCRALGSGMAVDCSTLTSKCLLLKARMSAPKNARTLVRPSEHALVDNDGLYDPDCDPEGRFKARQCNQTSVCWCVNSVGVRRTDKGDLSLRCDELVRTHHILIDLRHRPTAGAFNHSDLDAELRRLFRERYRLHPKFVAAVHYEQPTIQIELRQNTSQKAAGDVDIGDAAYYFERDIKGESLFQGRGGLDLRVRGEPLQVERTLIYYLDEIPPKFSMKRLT
- experimental_protocol: SPR (Biacore 8K), human TROP2-Fc on CM-5 chip, VHH in flow
So I've got a bunch of binders here, and I need their Kd values.
Answers are plain numbers, in pM.

As a guide, the following entries are already answered.
1. MY1530-6-1 (VHH, Expressed in E. coli WK6 from vector pMECS, purified on a nickel column; also called MY1530-6-1 VHH; anti-TROP2 single domain antibody) VHH: QVQLQESGGGSVQAGGSLRLSCAASGFPYSSYSMGWFRQAPGKEREGVAAIYTGGGSTYYAGSVKGRFTISQEHATNTLYLQMNSLKPEDTAMYYCAANMVDNGVISGIQALGVRYYNYWGQGTQVTVSS
210
2. MY1530-4-22 (VHH, Expressed in E. coli WK6 from vector pMECS, purified on a nickel column; also called MY1530-4-22 VHH; anti-TROP2 single domain antibody) VHH: QVQLQESGGGSVQAGGSLKLSCVVSGYTVSSVCMAWFRQAPGMERELVAGFYHSGGTYYGDSVKGRFTASQDNAKNTLYLQMNSLKPEDTATYYCARARYPSSACGTSPSNYNIWGQGTQVTVSS
730
3. MY1530-2-53 (VHH, Expressed in E. coli WK6 from vector pMECS, purified on a nickel column; also called MY1530-2-53 VHH; anti-TROP2 single domain antibody) VHH: QVQLQESGGGSVQAGGSLRLSCAVSGLTSSTTCMGWFRQAPGKEREGVAVIRSSGETTAADSVKGRFTISRDNAKNTLSLQMTSLKPEDTAMYYCAAAWPYSGCLLPLSSGDFTYWGQGTQVTVSS
9830

Now turn to the next binder.
Q) May I ask what Kd has been recorded for MY1530-5-17 (VHH, Expressed in E. coli WK6 from vector pMECS, purified on a nickel column; also called MY1530-5-17 VHH; anti-TROP2 single domain antibody) VHH: QVQLQESGGGSVQPGGSLRLSCVVSGYTVSSVCMAWFRQAPGMERELVAGFYHSGGTYYGDSVKGRFTASQDNAKNTLYLQMNSLKPEDTATYYCARARYPSSACGTSPSNYNIWGQGTQVTVSS ?
A) 270
